This collection of values is drawn from PubChem BioAssay (NCI).

System: T-47D breast
Test: NCI-60 one-dose screen, 48 h (100 = growth as untreated, 0 = no growth, -100 = all killed)
Conditions: 10 µM unless noted
Description: Growth inhibition of the T-47D human tumor cell line is measured as a screen for anti-cancer activity. Cells are grown in 96 well plates and exposed to the test compound for 48 hours. Compounds are tested at a single concentration, which is 10^-5 M for most compounds. The reported endpoint is percent growth (GI% or GIPRCNT), where numbers from 0 - 100% represent growth inhibition, and numbers from -100% - 0 represent cell death. For example, a value of 40 represents 60% growth inhibition. […]
The panel holds about 83,000 compounds, 20% with a hit somewhere; the sample as a whole holds those more often.
Threshold check on growth: strictly below 70% is YES; on or above 70% is NO.

Worked examples, 5 molecules total:
CCN(CC)CC(=O)Nc1cccc(C(=O)OC(C)C)c1 ... NO
O=C1CC(c2ccc3c(c2)OCO3)Nc2cc3c(cc21)OCO3 (stereo not given) ... YES
Cc1c2c(cn1Cc1ccccc1)CCc1cn[nH]c1-2 ... NO
CN(C)c1ccc(/C=C2\C=C(c3ccccc3)N(CCc3ccccc3)C2=O)cc1 ... NO
Clc1ccc(-c2cn(-c3ccccc3)c(-c3ccccc3)n2)cc1 ... YES

Hello, is growth of the following molecule strictly smaller than 70%? CCCCS(=O)(=O)Oc1ccc(-c2nc(C)c(C(=O)OCC)s2)cc1C=O
NO

Hello, is growth of the following molecule strictly smaller than 70%? N#C/C(=C\c1ccc(Br)cc1)n1nnc2cc(Cl)c(Cl)cc21
YES

Hello, is growth of the following molecule strictly smaller than 70%? NS(=O)(=O)Oc1ccc(-c2sc3cc(O)ccc3c2C(=O)c2ccc(OCCN3CCCCC3)cc2)cc1
NO

Hello, is growth of the following molecule strictly smaller than 70%? Cc1nc(Nc2ccc(S(=O)(=O)Nc3cc(C)on3)cc2)c2ccccc2n1
NO

* * *

system: NCI-H522 lung; assay: NCI-60 one-dose screen, 48 h (100 = growth as untreated, 0 = no growth, -100 = all killed); conditions: 10 µM unless noted
About 83,000 compounds went through this panel and 20% of them were active in at least one assay; those are over-represented in the sample as a whole.
Documented growth across a set of molecules
Lab book: enter the figure in %, no units written.

Field: example entries. Status: answers known.
[2H]c1nc(Nc2ncc(F)c(-c3cc(F)c4nc(C)n(C(C)C)c4c3)n2)c([2H])c([2H])c1CN1CCN(C([2H])([2H])C([2H])([2H])[2H])CC1 ... 58.1
O=c1cc(-c2ccc(OCc3ccccc3)cc2)oc2c(I)c(OCc3ccccc3)cc(OCc3ccccc3)c12 ... 91.5
O=c1[nH]c(NCc2nnnn2-c2ccc(Br)cc2)nc2sc3c(c12)CCCC3 ... 72.2
CCOC(=O)c1nnn(C(Cc2ccccc2Cl)C(=O)OCC)c1C (stereo not given) ... 68.9
Fc1ccc(Nc2nc3nonc3nc2Nc2ccc(F)cc2)cc1 ... -23.9
COc1cc(/C=C/C(=O)c2cccc(-n3cc(-c4ccc(Cl)cc4)[nH]c3=O)c2)cc(OC)c1OC ... 16.5

Fill in: growth on NCI-H522 lung, entry O=C1CC(c2ccc3c(c2)OCO3)Nc2cc3c(cc21)OCO3 (stereo not given)
-9.02

* * *

tested on: RXF 393 renal; test: NCI-60 one-dose screen, 48 h (100 = growth as untreated, 0 = no growth, -100 = all killed); conditions: 10 µM unless noted
This is part of a sample that, as a whole, favours compounds with a hit. Of some 83,000 tested, about 20% had one in any assay.
Documented growth across a set of compounds
Lab book: enter the figure in %, no units written.

Field: example entries. Status: answers known.
COc1ccc(-c2cc(-c3cc(OC)ccc3OC)[nH]c(=O)c2C#N)cc1 ... 71.1
COc1cc2oc(-c3cccc(C(=O)Nc4ccc(C)cc4)c3)cc(=O)c2c(OC)c1OC ... -7.43
CCN(CC)CCOC(=O)N1c2ccccc2Sc2ccccc21 ... 98.3
CCCCNC(=O)NS(=O)(=O)c1ccc(N2N=C(c3ccc(C)cc3C)CC2c2ccc(N(C)C)cc2)cc1 (configuration not stated) ... 79.5

# return recorded growth for input Nc1c(C(=O)Nc2ccccc2)sc2nc3c(cc12)CCCCCC3
-38.7

# return recorded growth for input CCOC(=O)c1nnn(C(Cc2ccccc2Cl)C(=O)OCC)c1C (configuration not stated)
109

# return recorded growth for input CN=C1C=CC(=C(c2ccc(N(C)C)cc2)c2ccc(N(C)C)cc2)C=C1
-50.8

# return recorded growth for input Cc1nc2ccccc2c(/C=C/c2ccc(Cl)cc2)c1C(=O)/C=C/c1ccc(Cl)cc1
-72.4

# return recorded growth for input Cc1c(C(=O)O)nnn1-c1nccs1
112

# return recorded growth for input CCOC(=O)c1nnn(-c2ccccc2)c1C1=CN(C)CCC1
120

# return recorded growth for input CCCCNC(=O)c1cc(NCc2cc(O)ccc2O)ccc1O
83.7

# return recorded growth for input COc1cc(/C=C/C(=O)c2ccc(Nc3nc(Nc4ccccc4)nc(Nc4ccc(Cl)cc4)n3)cc2)cc(OC)c1OC
58.5

# return recorded growth for input CC(C)(C)c1ccc(C(=O)Nc2sc3c(c2C(N)=O)CCC(=O)C3)cc1
-22.4

# return recorded growth for input O=C(NCOC(O)C(Cl)(Cl)Cl)NCOC(O)C(Cl)(Cl)Cl (configuration not stated)
125

# return recorded growth for input O=c1oc2ccc(Cl)cc2cc1-c1cs/c(=N/N=C\c2ccc(Cl)cc2)n1/N=C/c1ccc(Cl)cc1
113

# return recorded growth for input CC(C)CCC[C@@H](C)[C@H]1CCC2C3=CCC4C(=O)C=CC(=O)C4C3CC[C@@]21C (some centres not stated)
-66.6

# return recorded growth for input Cc1ccc(O)c(C(=O)c2ccccc2Cl)c1
104

# return recorded growth for input C[C@]12CCC(=O)C[C@H]1CC[C@@H]1[C@@H]2CC[C@@]2(C)[C@H]1CC[C@]2(O)C(=O)CO
108

* * *

Documented growth across a set of molecules
test system: CAKI-1 renal; assay: NCI-60 one-dose screen, 48 h (100 = growth as untreated, 0 = no growth, -100 = all killed); conditions: 10 µM unless noted
Compounds without any hit were thinned out: in the full panel of roughly 83,000, 20% have a hit.
Lab book: enter the figure in %, no units written.

Cc1cc(-c2noc(C(F)(F)F)n2)ccc1N1CCN(c2cc(C(=O)N(C)C)no2)CC1 ... 67.7

Kindly consider the entry below.
# return recorded growth for input COc1ccc(-c2nc3sccn3c2/C=C/C(=O)c2c[nH]c3ccccc23)cc1
49.6

* * *

system: T-47D breast; assay: NCI-60 one-dose screen, 48 h; details: 10 µM unless noted
The panel holds about 83,000 compounds, 20% with a hit somewhere; the sample as a whole holds those more often. Activity calls are given as the source filed them. How the source made its calls: active means growth percent below 10; inactive means the rest.
Write down one outcome, taken from yes for active, no for inactive

Worked examples, 4 compounds total:
COc1ccc(-c2c(N)n[nH]c2-c2ccccc2O)cc1OC ... no
CCC(O)(C(c1ccccc1)c1ccccn1)C(c1ccccc1)c1ccccn1 (stereo not given) ... no
COc1ccc(/C(C)=C(\c2ccc(Cl)cc2)c2ccc(OCCN(C)C)cc2)cc1F ... no
COc1ccc(N=c2nc3sc4cc(Cl)ccc4n3c(N)c2C#N)cc1 ... no

For COc1cc(/C=C/C(=O)c2cccc(-n3cc(-c4ccccc4)[nH]c3=O)c2)cc(OC)c1OC , what call appears in the results of this test?
yes

* * *

system: MDA-MB-435 melanoma; assay: NCI-60 one-dose screen, 48 h (100 = growth as untreated, 0 = no growth, -100 = all killed); conditions: 10 µM unless noted
Compounds without any hit were thinned out: in the full panel of roughly 83,000, 20% have a hit.
Documented growth across a set of compounds
Lab book: enter the figure in %, no units written.

Field: example entries. Status: answers known.
C[C@@H]1C(=O)N(C[C@@H](Cc2ccccc2)NC(=O)OCc2ccccc2)[C@]1(Cc1ccccc1)C(=O)OCc1ccccc1 ... 48.3
COc1ccc(C(=O)/C=C/C23c4ccccc4C(c4ccccc42)C2C(=O)NC(=O)C23)cc1 (centres undefined) ... 101
O=C1N(c2ccccc2)C(=S)N[C@]12[C@H](c1ccccc1)C1CCCN1[C@]21C(=O)NC2C=CC(Cl)=C[C@H]21 (some centres undefined) ... 112
CS(=O)(=O)c1ccc(-c2nc3cc(Cl)ccc3n2CC(=O)N/N=C/c2ccc(Cl)cc2)cc1 ... 73.7
CC(C)n1nc(C#Cc2cccc(O)c2)c2c(N)ncnc21 ... -25.8

Fill in: growth on MDA-MB-435 melanoma, entry COc1ccc(/C(C)=C(\c2ccc(Cl)cc2)c2ccc(OCCN(C)C)cc2)cc1F
51.5

Fill in: growth on MDA-MB-435 melanoma, entry CCCCCCCSc1ccc(C(=O)O)cc1
96

Fill in: growth on MDA-MB-435 melanoma, entry O=C(Oc1ccc[nH]c1=O)c1cc([N+](=O)[O-])cc([N+](=O)[O-])c1
121

Fill in: growth on MDA-MB-435 melanoma, entry CC(c1ccc(-n2cccn2)cc1)c1cnc(N2CCc3ccc(C(N)=O)cc3C2)s1 (centres undefined)
40.4
